These entries and their values trace back to ChEMBL document CHEMBL1148430.

Measured selectivity ratio by item
testMethodNotes: In vitro therapeutic index of compound was measured inV79 cells
Type: cell-based, Cricetulus griseus
conditionDetails: chinese hamster, V79 cells; read-out: T.I.
Just the number.

Cl.O=[N+]([O-])c1nccn1CCCNc1c2ccccc2nc2ccccc12 : 11
CN1CCc2nc3ccccc3c(NCCCn3ccnc3[N+](=O)[O-])c2C1.Cl : 7
Cl.O=[N+]([O-])c1nccn1CCCNc1c2c(nc3ccccc13)CCSC2 : 15

Field: next compound
Data request: Provide selectivity ratio value for the following compound: Cl.O=[N+]([O-])c1nccn1CCCNc1c2c(nc3ccccc13)CCCC2
Data returned: 20

###

Tested on: V79
testMethodNotes: Cytotoxicity of compound was measured against suspended V79 cells under aerobic conditions in clonogenic assay
Assay type: functional, Cricetulus griseus
quantityMeasured: CT50 (µM)
Answer with a number only, understood to be in µM.

Record excerpt, results attached:
Cl.O=[N+]([O-])c1nccn1CCCNc1c2c(nc3ccccc13)CCCC2 : 360
CN1CCc2nc3ccccc3c(NCCCn3ccnc3[N+](=O)[O-])c2C1.Cl : 426
Cl.O=[N+]([O-])c1nccn1CCCNc1c2c(nc3ccccc13)CCSC2 : 580

Here is another compound to look at.
Data request: Determine from records and report CT50 for Cl.O=[N+]([O-])c1nccn1CCCNc1c2ccccc2nc2ccccc12
Data returned: 84
